Tested on: human Factor 7 mRNA
Experiment: Antisense inhibition of human Factor 7 mRNA in HepB3 cells, 50 nM antisense oligonucleotide, lipofectin
Assay type: cell-based
Conditions: lipofectin, 50 nM antisense oligonucleotide, approximately 24 hours, Factor 7 mRNA by real-time RT-PCR (RTS 2927), relative to untreated control
Strand notation (5' to 3'): a small letter for the sugar, then the base; units joined by * are phosphorothioate-linked, units joined directly phosphodiester-linked; [ ] holds rarer units or linkages, { } end groups; capitals alone tell only the bases. e = 2'-O-(2-methoxyethyl) (MOE); [5mC] = 5-methylcytosine; d = 2'-deoxy (DNA)
Kindly supply the reported % Inhibition values for the records listed here.
One number for each entry, in %.

Solved entries (count: 2):
May I ask what % Inhibition has been recorded for 416548 (antisense eA*eG*eG*eT*eG*dA*dA*dT*dG*dA*dA*dA*dT*dT*d[5mC]*eT*eA*e[5mC]*e[5mC]*eT) [compound 416548] ? 29

Ok, now 416530 (antisense eA*eG*eG*eG*eT*dA*dG*d[5mC]*d[5mC]*dT*dT*dT*dG*d[5mC]*d[5mC]*eT*eT*eG*eG*e[5mC]) [compound 416530] 35

Please report % Inhibition for every entry that follows.
1. 416538 (antisense e[5mC]*eG*eT*eG*eG*dA*d[5mC]*dT*dG*dA*dT*d[5mC]*d[5mC]*dA*dA*eA*eG*eG*eA*e[5mC]) [compound 416538]
2. 416499 (antisense eG*eA*eG*eA*eG*d[5mC]*dT*dG*d[5mC]*dA*d[5mC]*d[5mC]*dT*dG*dG*e[5mC]*e[5mC]*eG*eG*e[5mC]) [compound 416499]
3. 416471 (antisense eT*eG*eA*eG*e[5mC]*dT*dT*dT*dT*dG*d[5mC]*dA*dG*d[5mC]*d[5mC]*eA*e[5mC]*eT*e[5mC]*eG) [compound 416471]

[46, 7, 62]

----------
Tested on: human Factor 7 mRNA
Experiment: Antisense inhibition of human Factor 7 mRNA in HepB3 cells, 50 nM antisense oligonucleotide, lipofectin
Format: cell-based
Details: Table 13 (microwalk), 50 nM, lipofectin, approximately 24 hours
Strand notation (5' to 3'): a small letter for the sugar, then the base; units joined by * are phosphorothioate-linked, units joined directly phosphodiester-linked; [ ] holds rarer units or linkages, { } end groups; capitals alone tell only the bases. e = 2'-O-(2-methoxyethyl) (MOE); [5mC] = 5-methylcytosine; d = 2'-deoxy (DNA)
quantity kind: % Inhibition (%)
Give bare numbers, in %.

Solved entries (count: 3):
May I ask what % Inhibition has been recorded for 407935 (antisense eA*eT*eG*e[5mC]*eA*dT*dG*dG*dT*dG*dA*dT*dG*d[5mC]*dT*eT*e[5mC]*eT*eG*eA) [compound 407935] ? 79

Ok, now 422151 (antisense eT*eG*e[5mC]*dA*dT*dG*dG*dT*dG*dA*dT*dG*d[5mC]*dT*dT*d[5mC]*dT*eG*eA*eA) [compound 422151] 68

Ok, now 422086 (antisense eT*eG*e[5mC]*eA*eT*dG*dG*dT*dG*dA*dT*dG*d[5mC]*dT*dT*e[5mC]*eT*eG*eA*eA) [compound 422086] 81

Please report % Inhibition for every entry that follows.
1. 422230 (antisense e[5mC]*eA*dT*dG*d[5mC]*dA*dT*dG*dG*dT*dG*dA*dT*dG*d[5mC]*eT*eT*e[5mC]*eT*eG) [compound 422230]
2. 422150 (antisense eG*e[5mC]*eA*dT*dG*dG*dT*dG*dA*dT*dG*d[5mC]*dT*dT*d[5mC]*dT*dG*eA*eA*eT) [compound 422150]
3. 422229 (antisense eA*eT*dG*d[5mC]*dA*dT*dG*dG*dT*dG*dA*dT*dG*d[5mC]*dT*eT*e[5mC]*eT*eG*eA) [compound 422229]

1. 65
2. 74
3. 71

The reported numbers originate from patent US9029337B2.
